Molecular target: YES1 90-152, P07947
Sequence (P07947 90-152): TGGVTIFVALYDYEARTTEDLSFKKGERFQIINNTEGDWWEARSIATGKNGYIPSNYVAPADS
readout_label: selected by phage display

Past entries and their recorded results:
binder: LQRTLPSVPPDTKLSK [TCF24, Q7RTU0]
readout_label: selected by phage display
value_measured: confidence 2 (active)

binder: TFRWTSLTRELPPPPP [KMT2B, Q9UMN6]
readout_label: selected by phage display
value_measured: confidence 2 (active)

binder: TAGPGRPLPQRPMPDQ [ZFHX2, Q9C0A1]
readout_label: selected by phage display
value_measured: confidence 2 (active)

binder: IQSIPLPPTTHTRLPA [TSHZ1, Q6ZSZ6]
readout_label: selected by phage display
value_measured: confidence 2 (active)

binder: AAVGVSKPLPSVPPSI [MADD, Q8WXG6]
readout_label: selected by phage display
value_measured: confidence 2 (active)

Asked: Give the reported selected by phage display for this binder. LPPPPPPDRPYSVGAE [CBL, P22681]
Given back: confidence 4 (active)

Asked: Retrieve selected by phage display measured for APTLPLPPPPGFPPLP [SETD1B, Q9UPS6] and print it.
Given back: confidence 3 (active)

Asked: Give the value of selected by phage display reported for the following: VDPSKHIRPVPSLPDV [VPS54, Q9P1Q0]
Given back: confidence 2 (active)

Asked: Tell me its selected by phage display given MSGHTLPPLPVPGTNS [EPPK1, P58107] as the entry.
Given back: confidence 3 (active)

Asked: Write down selected by phage display measured for item LLPPPPPGAPLPSLPF [SOBP, A7XYQ1]
Given back: confidence 2 (active)

Asked: Output measured selected by phage display for this item: PGRGLPQLPSSAYSVD [ST5, P78524]
Given back: confidence 4 (active)

Asked: Fill in selected by phage display for record RLSLEGLPSLPSMHEY [IRS2, Q9Y4H2]
Given back: confidence 3 (active)

Asked: Consider the binder QLGDLPPKPQLSDLPP [ASAP1, Q9ULH1] and give its recorded selected by phage display.
Given back: confidence 2 (active)

Asked: Item PQKEGERALPSIPKLA [PTK2, Q05397] : provide selected by phage display
Given back: confidence 3 (active)

Asked: Given TSTLPPLPLPPLLPGD [CDK12, Q9NYV4] , respond with its selected by phage display.
Given back: confidence 3 (active)

Asked: State, in one line, measured selected by phage display of SRALPATPQLPSRSGV [WIPF1, O43516]
Given back: confidence 3 (active)

Asked: Note selected by phage display for the binder shown: ELPLLPPPPSLPTIGA [SETD5, Q9C0A6]
Given back: confidence 3 (active)

Asked: Consider the binder HSSRELPSRPDGVLHV [VWA5B2, Q8N398] . State its measured selected by phage display.
Given back: confidence 3 (active)

Asked: // fetch selected by phage display given entry LPLPPLPGAGIPPPPP [FMN2, Q9NZ56]
Given back: confidence 2 (active)

Asked: Fill in reported selected by phage display for this entry: VKRTLPSPPPEEAHLP [BSN, Q9UPA5]
Given back: confidence 3 (active)
